Tested on: A549
Assay: NCI tumour cell line growth inhibition, 48 h
Activity calls are given as the source filed them. Rule as the data show it: active = GI50 up to about 1.1 µM and inactive = higher.
Recorded GI50, one value per entry.

compound="CCC(CCCN)Nc1cc(OC)cc2c(C)ccnc12 (configuration not stated)" reported_property=GI50 result="15.6 µM (inactive)"
compound=CN(C)c1ccc(C=C2C(=O)N(c3ccccc3)N(c3ccccc3)C2=O)cc1 reported_property=GI50 result="78.9 µM (inactive)"
compound=COC(=O)c1cc(NC(=O)Cc2c[nH]c3ccccc23)cn1C reported_property=GI50 result="70.5 µM (inactive)"
compound=COc1ccc(-n2sc3ncccc3c2=O)cc1 reported_property=GI50 result="69.5 µM (inactive)"
compound=CCOP(=O)(OCC)/C(C#N)=C/c1cccn1CC(C)C reported_property=GI50 result="> 100 µM (inactive)"

Ask | Give reported GI50 value for CSC12c3cc(C)n(-c4ccc(I)cc4)c3CC(C)(C)CN1C(=O)C2Oc1ccccc1 (configuration not stated)
Reply | > 96.4 µM (inactive)

Ask | Give reported GI50 value for CC1CC(C2=CC=CCS2)=Nc2ccccc2S1 (configuration not stated)
Reply | > 100 µM (inactive)

Ask | Give reported GI50 value for Cc1nnc([C@@]2(C)CC[C@H]3[C@@H](CCC4=CC(=O)CC[C@@]43C)[C@@H]2CC#N)o1
Reply | > 100 µM (inactive)

Ask | Give reported GI50 value for COc1ccc(OC)c2c(=O)c3ccccc3[nH]c12
Reply | 47 µM (inactive)

Ask | Give reported GI50 value for C[C@@H]1OCC(O)C([C@H]2OC(c3ccccc3)=N[C@H]2CO)O1 (some centres not stated)
Reply | > 100 µM (inactive)
